Origin of the recorded values: the RepoRT retention time repository

# TEST DESCRIPTION: HILIC, HILICON iHILIC-(P) Classic, HILIC, PEEK, 50 × 2.1 mm, 5 µm, 30 °C, 0.12 mL/min, estimated dead time 0.92 min; A: water + 20 mM ammonium carbonate; B: acetonitrile; gradient (min/%B) 0/80 1/80 21/20 21.5/20 26.5/20 27.5/80 35/80
# CONDITION INFO: stereoisomer not certain
Threshold 10 min. LC retention time below it: 1 (yes). LC retention time at it or above: 0 (no).

molecule="NC(CO)C(=O)O (configuration not stated)" classification="1 (yes)"
molecule="O=c1ccn(C2OC(COP(=O)(O)O)C(O)C2O)c(=O)[nH]1 (configuration not stated)" classification="1 (yes)"
molecule=C=C(OP(=O)(O)O)C(=O)O classification="0 (no)"
molecule="O=P(O)(O)OCC(O)CO (configuration not stated) [Glycerol-3-phosphate]" classification="0 (no)"
molecule="NC(=O)c1ccc[n+](C2OC(COP(=O)(O)OP(=O)(O)OCC3OC(n4cnc5c(N)ncnc54)C(OP(=O)(O)O)C3O)C(O)C2O)c1 (configuration not stated)" classification="0 (no)"
molecule="Nc1ccn(C2OC(COP(=O)(O)O)C(O)C2O)c(=O)n1 (configuration not stated)" classification="0 (no)"
molecule=O=C(O)CC(O)(CC(=O)O)C(=O)O classification="0 (no)"
molecule="NC(Cc1ccc(O)cc1)C(=O)O (configuration not stated)" classification="1 (yes)"
molecule="NCCCCC(N)C(=O)O (configuration not stated)" classification="0 (no)"
molecule="NC(=O)CC(N)C(=O)O (configuration not stated)" classification="0 (no)"
molecule="O=C1OC(C(O)CO)C(O)=C1O (configuration not stated)" classification="1 (yes)"

###

# TEST DESCRIPTION: HILIC, HILICON iHILIC-(P) Classic, HILIC, PEEK, 50 × 2.1 mm, 5 µm, 30 °C, 0.12 mL/min, estimated dead time 0.92 min; A: water + 20 mM ammonium carbonate; B: acetonitrile; gradient (min/%B) 0/80 1/80 21/20 21.5/20 26.5/20 27.5/80 35/80
# CONDITION INFO: stereoisomer not certain
Cut-off 7 min on LC retention time, inclusive. At or above means Fulfilled; below means Not fulfilled.

molecule="CC(=O)SCCNC(=O)CCNC(=O)C(O)C(C)(C)COP(=O)(O)OP(=O)(O)OCC1OC(n2cnc3c(N)ncnc32)C(O)C1OP(=O)(O)O (stereo not given)" classification=Fulfilled
molecule="CC(=O)NC1C(OP(=O)(O)OP(=O)(O)OCC2OC(n3ccc(=O)[nH]c3=O)C(O)C2O)OC(CO)C(O)C1O (stereo not given)" classification=Fulfilled
molecule="CCC(C)C(N)C(=O)O (stereo not given)" classification="Not fulfilled"
molecule="NCCCC(N)C(=O)O (stereo not given)" classification=Fulfilled
molecule="NC(Cc1ccccc1)C(=O)O (stereo not given)" classification="Not fulfilled"
molecule="O=C(O)CC(C(=O)O)C(O)C(=O)O (stereo not given)" classification=Fulfilled
molecule="NC(=O)c1ccc[n+](C2OC(COP(=O)(O)OP(=O)(O)OCC3OC(n4cnc5c(N)ncnc54)C(O)C3O)C(O)C2O)c1 (stereo not given)" classification=Fulfilled
molecule=O=C(O)c1cccnc1 classification="Not fulfilled"
molecule="Nc1ncnc2c1ncn2C1OC(COP(=O)(O)OP(=O)(O)OP(=O)(O)O)C(O)C1O (stereo not given)" classification=Fulfilled
molecule="O=C(O)C1CCCN1 (stereo not given)" classification=Fulfilled
molecule="Nc1nc2c(ncn2C2OC(CO)C(O)C2O)c(=O)[nH]1 (stereo not given)" classification=Fulfilled
molecule="Nc1ncnc2c1ncn2C1OC(COP(=O)(O)O)C(O)C1O (stereo not given)" classification=Fulfilled
molecule="CC(O)C(=O)O (stereo not given)" classification="Not fulfilled"
molecule="Nc1nc2ncc(CNc3ccc(C(=O)NC(CCC(=O)O)C(=O)O)cc3)nc2c(=O)[nH]1 (stereo not given)" classification=Fulfilled
molecule="O=C(O)C1(O)CC(O)C(O)C(O)C1 (stereo not given)" classification="Not fulfilled"
molecule="Nc1nc2c(ncn2C2OC(COP(=O)(O)O)C(O)C2O)c(=O)[nH]1 (stereo not given)" classification=Fulfilled
molecule="NC(Cc1c[nH]c2ccccc12)C(=O)O (stereo not given)" classification="Not fulfilled"
molecule="O=C(O)CCCCC1SCC2NC(=O)NC21 (stereo not given)" classification="Not fulfilled"

###

Listed next: entries and their corresponding LC retention time.
# TEST DESCRIPTION: HILIC, HILICON iHILIC-(P) Classic, HILIC, PEEK, 50 × 2.1 mm, 5 µm, 30 °C, 0.12 mL/min, estimated dead time 0.92 min; A: water + 20 mM ammonium carbonate; B: acetonitrile; gradient (min/%B) 0/80 1/80 21/20 21.5/20 26.5/20 27.5/80 35/80
# CONDITION INFO: stereoisomer not certain
ENDPOINT LABEL: LC retention time (min)

compound="O=C(O)C(CO)OP(=O)(O)O (stereo not given)" unit_string=min value=13.6
compound="Nc1ncnc2c1ncn2C1OC(CO)C(O)C1O (stereo not given)" unit_string=min value=3.76
compound="O=C(O)CC(O)C(=O)O (stereo not given)" unit_string=min value=13
compound="CC(O)C(N)C(=O)O (stereo not given)" unit_string=min value=8.47
compound="Nc1ncnc2c1ncn2C1OC(COP(=O)(O)OP(=O)(O)O)C(O)C1O (stereo not given)" unit_string=min value=12.5

###

# TEST DESCRIPTION: HILIC, HILICON iHILIC-(P) Classic, HILIC, PEEK, 50 × 2.1 mm, 5 µm, 30 °C, 0.12 mL/min, estimated dead time 0.92 min; A: water + 20 mM ammonium carbonate; B: acetonitrile; gradient (min/%B) 0/80 1/80 21/20 21.5/20 26.5/20 27.5/80 35/80
# CONDITION INFO: stereoisomer not certain
Listed next: entries and their corresponding LC retention time.
ENDPOINT LABEL: LC retention time (min)

compound="O=c1ccn(C2OC(COP(=O)(O)OP(=O)(O)O)C(O)C2O)c(=O)[nH]1 (stereo not given) [UDP]" unit_string=min value=12.3
compound="O=C(O)CC(=O)O [Malonic Acid]" unit_string=min value=9.63
compound="Nc1ncnc2nc[nH]c12 [Adenine]" unit_string=min value=3.84
compound="CC(C)CC(N)C(=O)O (stereo not given) [Leucine]" unit_string=min value=5.63
compound="Nc1nc2c(ncn2C2OC(COP(=O)(O)OP(=O)(O)OP(=O)(O)O)C(O)C2O)c(=O)[nH]1 (stereo not given) [GTP]" unit_string=min value=16.9
compound="Cc1ncc(C[n+]2csc(CCO)c2C)c(N)n1 [Thiamine]" unit_string=min value=12.7
compound="NC(CCC(=O)O)C(=O)O (stereo not given) [Glutamic acid]" unit_string=min value=10.2
compound="Nc1nc2c(ncn2C2OC(COP(=O)(O)OP(=O)(O)O)C(O)C2O)c(=O)[nH]1 (stereo not given) [GDP]" unit_string=min value=14.8
compound="CC(=O)NC(CC(=O)O)C(=O)O (stereo not given) [N-Acetylaspartic acid]" unit_string=min value=9.49
compound="NC(=O)C1=CN(C2OC(COP(=O)(O)OP(=O)(O)OCC3OC(n4cnc5c(N)ncnc54)C(OP(=O)(O)O)C3O)C(O)C2O)C=CC1 (stereo not given) [NADPH]" unit_string=min value=16.3
compound="NC(CCC(=O)NC(CS)C(=O)NCC(=O)O)C(=O)O (stereo not given) [GSH]" unit_string=min value=8.95
compound="Nc1ccn(C2OC(COP(=O)(O)OP(=O)(O)O)C(O)C2O)c(=O)n1 (stereo not given) [CDP]" unit_string=min value=13.2
compound="NC(CSSCC(N)C(=O)O)C(=O)O (stereo not given) [Cystine]" unit_string=min value=11.8
compound="O=C(CO)COP(=O)(O)O [Triose phosphate]" unit_string=min value=11.5
compound="O=c1ccn(C2OC(COP(=O)(O)OP(=O)(O)OP(=O)(O)O)C(O)C2O)c(=O)[nH]1 (stereo not given) [UTP]" unit_string=min value=14.1
compound="NC(CCC(=O)NC(CSSCC(NC(=O)CCC(N)C(=O)O)C(=O)NCC(=O)O)C(=O)NCC(=O)O)C(=O)O (stereo not given) [GSSG]" unit_string=min value=15.6
compound="O=C(O)CCC(=O)O [Succinic Acid]" unit_string=min value=12.1
compound="NC(=O)c1ccc[n+](C2OC(COP(=O)([O-])O)C(O)C2O)c1 (stereo not given) [NMN]" unit_string=min value=9.99
compound="Nc1ccn(C2OC(CO)C(O)C2O)c(=O)n1 (stereo not given) [Cytidine]" unit_string=min value=6.28
compound="NC(=O)CCC(N)C(=O)O (stereo not given) [Glutamine]" unit_string=min value=8.86
